Biological target: YB-1 (full-length) (human, UniProt P67809 1-324)
Sequence (P67809 whole entry): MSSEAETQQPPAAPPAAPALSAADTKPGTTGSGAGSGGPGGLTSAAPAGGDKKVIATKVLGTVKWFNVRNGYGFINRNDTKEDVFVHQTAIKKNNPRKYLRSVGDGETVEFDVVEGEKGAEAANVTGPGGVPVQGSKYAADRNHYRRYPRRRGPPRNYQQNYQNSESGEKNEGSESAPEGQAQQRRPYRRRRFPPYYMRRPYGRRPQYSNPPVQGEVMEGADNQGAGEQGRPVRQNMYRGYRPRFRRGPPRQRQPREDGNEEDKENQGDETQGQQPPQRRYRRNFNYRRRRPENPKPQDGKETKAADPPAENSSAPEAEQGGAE
Assay: EMSA; apparent Kd, protein concentration at 50% saturation; 7 pmol DNA in 10 ul; 10 mM Hepes-KOH pH 7.6, 100 mM KCl, 30 C, 15 min, 10 ul; 8% native PAGE in TBE, silver staining
Conditions: protein: recombinant; single strand
observation type: Kd (nM)
Lab book: enter the figure in nM, no units written.

Q) Input AGGATGGGTGAGTGAGGTAG (ssDNA) [G-rich DNA 20-mer] , output reported Kd.
A) 600
